Sequence of the target: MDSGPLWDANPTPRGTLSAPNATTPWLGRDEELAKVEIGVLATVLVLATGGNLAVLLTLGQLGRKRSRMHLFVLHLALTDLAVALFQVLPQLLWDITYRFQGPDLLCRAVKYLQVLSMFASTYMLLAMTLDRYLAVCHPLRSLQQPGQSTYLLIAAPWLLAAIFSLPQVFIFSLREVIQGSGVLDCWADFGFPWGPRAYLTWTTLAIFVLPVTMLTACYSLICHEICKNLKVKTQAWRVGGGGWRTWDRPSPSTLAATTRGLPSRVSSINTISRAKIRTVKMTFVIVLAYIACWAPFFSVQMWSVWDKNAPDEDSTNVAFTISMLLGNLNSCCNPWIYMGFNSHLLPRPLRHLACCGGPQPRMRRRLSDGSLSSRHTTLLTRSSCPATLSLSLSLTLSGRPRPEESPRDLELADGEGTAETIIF
parameter.measured: Ki

Query: Return reported Ki; argument: CCN1CCC(N[C@H]2CCN(C(=O)C(c3ccccc3)n3c(=O)n(S(=O)(=O)c4ccc(OC)cc4)c4ccc(C#N)cc43)C2)CC1 (stereo partly shown) [Example 209]
Reply: < 0.1 µM
